Target: human LPA3 receptor (Homo sapiens)
Construct: expressed in transfected cells; host or cells: CHO cells (Chinese hamster ovary) with the LPA1 receptor knocked down
Sequence (Q9UBY5 whole entry): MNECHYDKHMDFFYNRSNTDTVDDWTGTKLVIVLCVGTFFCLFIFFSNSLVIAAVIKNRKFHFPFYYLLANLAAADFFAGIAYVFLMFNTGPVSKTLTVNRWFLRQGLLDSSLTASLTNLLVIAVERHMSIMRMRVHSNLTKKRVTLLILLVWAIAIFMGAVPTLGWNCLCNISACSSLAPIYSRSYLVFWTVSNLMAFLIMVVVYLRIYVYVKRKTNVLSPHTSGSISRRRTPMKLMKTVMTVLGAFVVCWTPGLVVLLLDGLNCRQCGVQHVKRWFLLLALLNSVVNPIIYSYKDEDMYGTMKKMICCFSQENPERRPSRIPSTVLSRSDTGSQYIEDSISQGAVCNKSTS
Assay: LPA3 agonist activity measurement (Method A): intracellular Ca2+ in RH7777 cells stably expressing human LPA3 receptor
Type: cell-based
Settings: RH7777 cells expressing human LPA3, Ca2+ fluorescence
pEC50: −log10 of the molar value.
Each entry below carries its reported pEC50.
Assay Metric: pEC50

>>> df
                                   molecule               target_or_test_system  reported_measurement
0  Cc1ccc(Cn2c(C(=O)O)c(CNC3CC3)c3ccccc32)cc1 [Example 2(18)]  human LPA3 receptor (Homo sapiens)                  6.00
1  Cc1ccc(Cn2c3c(c(CNC4CCC4)c2C(=O)O)CCCC3)cc1 [Example 7]  human LPA3 receptor (Homo sapiens)                  7.00
2  Cc1ccc(Cn2c(C(=O)O)c(C(C)NC3CCC3)c3ccccc32)cc1 (stereo not drawn) [Example 5]  human LPA3 receptor (Homo sapiens)                  7.00
3  O=C(O)c1c(CNC2CCC2)c2ccccc2n1CC1CC1(F)F (stereo not drawn) [Example 1(3)]  human LPA3 receptor (Homo sapiens)                  6.30
4  C=Cc1c(CNC2CCC2)c(C(=O)O)n(Cc2ccc(C)cc2)c1C [Example 6(7)]  human LPA3 receptor (Homo sapiens)                  6.00
5  Cc1ccc(Cn2c(C(=O)O)c(CNC3CCC3)c3ccccc32)cc1 [Example 2]  human LPA3 receptor (Homo sapiens)                  7.22
6  Cc1ccc(Cn2c(Br)c(C)c(CNC3CCC3)c2C(=O)O)cc1 [Example 2(34)]  human LPA3 receptor (Homo sapiens)                  7.40
7  CCn1c(C(=O)O)c(CNC2CCC2)c2ccccc21 [Example 1(4)]  human LPA3 receptor (Homo sapiens)                  6.22
8  Cc1ccc(Cn2c(C)c(-c3cccc(F)c3)c(CNC3CCC3)c2C(=O)O)cc1 [Example 6(2)]  human LPA3 receptor (Homo sapiens)                  6.05

====

Each entry below carries its reported pEC50.
Target: human LPA3 receptor (Homo sapiens)
Construct: expressed in transfected cells; host or cells: CHO cells (Chinese hamster ovary) with the LPA1 receptor knocked down
Test: LPA3 agonist activity measurement (Method B): intracellular Ca2+ in LPA1-knockdown CHO cells stably expressing human LPA3 receptor
Type: cell-based
Settings: LPA1-knockdown CHO cells expressing human LPA3, Ca2+ fluorescence
pEC50: −log10 of the molar value.
Assay Metric: pEC50

>>> print(df.to_string())
                                    compound               target_or_test_system  assay_metric  reported_measurement
 0  Cc1ccc(Cn2c(C(=O)O)c(CNC3CCC3C)c3ccccc32)cc1 (centres unmarked)  human LPA3 receptor (Homo sapiens)         pEC50                  7.00
 1         CCn1c(C(=O)O)c(CNC2CCC2)c2ccccc21  human LPA3 receptor (Homo sapiens)         pEC50                  6.22
 2   O=C(O)c1c(CNC2CC2)c2ccccc2n1Cc1ccccc1Cl  human LPA3 receptor (Homo sapiens)         pEC50                  7.00
 3  O=C(O)c1c(CNC2CCCC2)c2ccccc2n1Cc1ccccc1Cl  human LPA3 receptor (Homo sapiens)         pEC50                  6.70
 4     O=C(O)c1c(CNC2CCC2)c2ccccc2n1Cc1cccs1  human LPA3 receptor (Homo sapiens)         pEC50                  7.52
 5  O=C(O)c1c(CNC2CCC2)c2ccccc2n1Cc1ccccc1OC(F)F  human LPA3 receptor (Homo sapiens)         pEC50                  7.00
 6  Cc1ccc(Cn2c(C(=O)O)c(CNC3CCC3)c3cccnc32)cc1  human LPA3 receptor (Homo sapiens)         pEC50                  7.00
 7  O=C(O)c1c(CNC2CCC2)c2ccccc2n1Cc1ccccc1Cl  human LPA3 receptor (Homo sapiens)         pEC50                  7.30
 8  O=C(O)c1c(CNC2CCC2)c2ccccc2n1Cc1cccc(C2CC2)c1  human LPA3 receptor (Homo sapiens)         pEC50                  7.40
 9  Cc1ccc(Cn2c(C(=O)NS(C)(=O)=O)c(CNC3CCC3)c3ccccc32)cc1  human LPA3 receptor (Homo sapiens)         pEC50                  7.22
10  O=C(O)c1c(CNC2CCC2)c2ccccc2n1CC1CC1(F)F (centres unmarked)  human LPA3 receptor (Homo sapiens)         pEC50                  6.70
11  Cc1ccc(Cn2c(C(=O)O)c(CNC3CSC3)c3ccccc32)cc1  human LPA3 receptor (Homo sapiens)         pEC50                  7.22
12  CSc1ccccc1Cn1c(C(=O)O)c(CNC2CCC2)c2ccccc21  human LPA3 receptor (Homo sapiens)         pEC50                  7.22
13  Cc1ccc(Cn2c(C(=O)O)c(CNC3CCC3)c3cccc(C#N)c32)cc1  human LPA3 receptor (Homo sapiens)         pEC50                  6.70
